tested on: Bacillus subtilis; experiment: cleaved RNA product abundance (RNA/gDNA barcode ratio) relative to median wild-type variant (ratio to wild type); higher = more accumulation of the downstream cleavage product; settings: experiment (reporter, strain, medium): exp 4a: truncated aprE reporter, strain BJT201 with 2% xylose (RNase J1 expressed); cleavage site: cggR-gapA (positions -7 to +36 mutated)
Measured cleaved RNA product abundance, listed per entry.

Solved cases below.
{"seq_text": "ACAGACGAAGGAGCCGCAAAGAAGTTATTAAGAGATGAATAATCCCTCAATCTAAATATCTCTCACTTATTTAAA", "reported_value": 0.0377}
{"seq_text": "ACAGACGAAGGAGCCGCAAAAAAGTTATTAAGGGATGAATAATCCCTCGATATAAATATCTCTCACTTATTTAAA", "reported_value": 0.555}
{"seq_text": "ACAGACGAAGGAGCCGCAAAGAAGTTATTAAGGGATAAATAATCCATCAATATAAATATCTCTCACTTATTTAAA", "reported_value": 0.195}
{"seq_text": "ACAGACGAAGGAGCCGCAAAGAAGTTATTAAGGGATGAATAATCCCTCAATATAAATATCTCTCGCTTATTTAAA", "reported_value": 0.778}
{"seq_text": "ACAGACGAAGGAGCCGCAAAGAAGTTATTAAGGGAAGAATAATCCCTCAATATGAATATCTCTCACTTATTTAAA", "reported_value": 0.0705}
{"seq_text": "ACAGACGAAGGAGCCGCAAAGAAGTTTTTAAGGGACGAATAATCCCTCAATATAAATATCTCTCACTTATTTAAA", "reported_value": 0.444}

Notebook: pull reported cleaved RNA product abundance for Bacillus subtilis, entry ACAGACGAAGGAGCCGCAAACAAGTTATTAAGGGTTGAATAATCCCTCAATATAAATATCTCTCACTTATTTAAA 0.183

###

tested on: Bacillus subtilis; experiment: cleaved RNA product abundance (RNA/gDNA barcode ratio) relative to median wild-type variant (ratio to wild type); higher = more accumulation of the downstream cleavage product; conditions: experiment (reporter, strain, medium): exp 6: tetM reporter, strain 168; cleavage site: cggR-gapA (positions -7 to +36 mutated)
readout: cleaved RNA product abundance

Below are worked cases with known answers.
{"seq_text": "ACAGACGAAGGAGCCGCAAAGAAGTTATTAAGGGATGAATAATCCCTCAATAAAAATATCTCTCACTTATTTAAA", "assayed_target": "Bacillus subtilis", "readout": "cleaved RNA product abundance", "reported_value": 0.28}
{"seq_text": "ACAGACGAAGGAGCCGCAAACAAGTTATTAAGGGATGAATAATCCCTCAATATAAATATCTCTCACTTATTTAAA", "assayed_target": "Bacillus subtilis", "readout": "cleaved RNA product abundance", "reported_value": 0.707}
{"seq_text": "ACAGACGAAGGAGCCGCAAAGAAGTTATTAAGGGATGAATAATTACTCAATATAAATATCTCTCACTTATTTAAA", "assayed_target": "Bacillus subtilis", "readout": "cleaved RNA product abundance", "reported_value": 0.11}
{"seq_text": "ACAGACGAAGGAGCCGCAAAGAAGTTATTAAGGGATGAATAATCCCTCAATATAAATGTCTCTCACTTATTTAAA", "assayed_target": "Bacillus subtilis", "readout": "cleaved RNA product abundance", "reported_value": 0.546}
{"seq_text": "ACAGACGAAGGAGCCGCAGAGAAGTTATTAAGGGATGAATAATCCCTCAATATAAATATCTCTCACTTATTTAAA", "assayed_target": "Bacillus subtilis", "readout": "cleaved RNA product abundance", "reported_value": 0.208}
{"seq_text": "ACAGACGAAGGAGCCGCAAAGAAGTTATTAAAGGATGAATAATCCCTCAATATAAATATCTCTCACTTATTTAAA", "assayed_target": "Bacillus subtilis", "readout": "cleaved RNA product abundance", "reported_value": 0.242}

If you can, please state the reported cleaved RNA product abundance value of ACAGACGAAGGAGCCGCAAAGAAGTTATCAAGGGATGAATAATCCCTCAATATAAATATCTCTCACTTATTTAAA . 0.34

Would you kindly repeat that for ACAGACGAAGGAGCCGCAAAGAAGTTATTAAGGGATGAATATTCCCTCAATATAAATATCTCTCACTTATTTAAA ? 0.84

Now the same for ACAGACGAAGGAGCCGCAAAGAAGCTATTAAGGGATGAATAATCCCTCAATATAAATATCTCTCACTTATTTAAA 0.588

Please do the same for ACAGACGAAGGAGCCGCGAAGAAGTTATTAAGGGATGAATAATCCCTCAATATAAATATCTCTCACTTATTTAAA as well. 0.885

Would you mind doing ACAGACGAAGGAGCCGCAAAGAAGTTATTAAGGGATGAATAATCCCTCAATATAACTATCTCTCACTTATTTAAA as well? 0.267

###

tested on: Bacillus subtilis; test: cleaved RNA product abundance (RNA/gDNA barcode ratio) relative to median wild-type variant (ratio to wild type); higher = more accumulation of the downstream cleavage product; conditions: experiment (reporter, strain, medium): exp 4a: truncated aprE reporter, strain BJT201 with 2% xylose (RNase J1 expressed); cleavage site: cggR-gapA (positions -7 to +36 mutated)
readout: cleaved RNA product abundance
Give only the figure.

Item ACAGACGAAGGAGCCGCAAAGAAATTATTAAGTGATGAATAATCCCTCAAAATAAATATCTCTCACTTATTTAAA has what recorded cleaved RNA product abundance? 0.0994

And for ACAGACGAAGGAGCCGCAAAGAAGTGATTAAGGGATGAATAATCCCTAAATATAAATATCTCTCACTTATTTAAA ? 0.388

How about this sequence: ACAGACGAAGGAGCCGCAAAGAAGTTATTAAGGTATGAATAACCCCTCAATATAAATATCTCTCACTTATTTAAA 0.0618

Param item: ACAGACGAAGGAGCCGCAAAGAAGTTATTAAGGGATGAATAGTCCCTCAATATAAATATCTCTCACTTATTTAAA 0.857

###

tested on: Bacillus subtilis; test: cleaved RNA product abundance (RNA/gDNA barcode ratio) relative to median wild-type variant (ratio to wild type); higher = more accumulation of the downstream cleavage product; details: experiment (reporter, strain, medium): exp 4a: truncated aprE reporter, strain BJT201 with 2% xylose (RNase J1 expressed); cleavage site: cggR-gapA (positions -7 to +36 mutated)
readout: cleaved RNA product abundance
Give a plain numeric answer without units written out.

{"seq_text": "ACAGACGAAGGAGCCGCAAAGAAGTTATTAAGGGATGTATAATCCCTGAATATAAATATCTCTCACTTATTTAAA", "assayed_target": "Bacillus subtilis", "reported_value": 0.461}

Endpoint output: cleaved RNA product abundance of ACAGACGAAGGAGCCGCAAAGAAGTTATTAAGGGATGAATAATACTTCAATATAAATATCTCTCACTTATTTAAA . Value? 0.111

Moving on to the next sequence: ACAGACGAAGGAGCCGCAAATAAGTTATTAAGGGATGAATTATCCCTCAATATAAATATCTCTCACTTATTTAAA 0.737

Can you handle ACAGACGAAGGAGCCGCAAAGAAGTTAATAACGGATGAATAATCCCTCAATATAAATATCTCTCACTTATTTAAA next? 0.177

Another sequence: ACAGACGAAGGAGCCGCAAAGAAGTTACTAAGGGATAAATAATCCCTCAATATAAATATCTCTCACTTATTTAAA 0.224

Now consider ACAGACGAAGGAGCCGCAAAGAAGTTAATAAGGGATGAATAATGCCTCAATATAAATATCTCTCACTTATTTAAA . 0.124

ACAGACGAAGGAGCCGCAAAGAAGTTATTAAAGGATGAATAATCCCTCTATATAAAAATCTCTCACTTATTTAAA , same question. 0.229

And ACAGACGAAGGAGCCGCAAAGAAGTTATTAAGGGATAAATAATCCCTCCATATAAATATCTCTCACTTATTTAAA ? 0.234

What would you report for ACAGACGAAGGAGCCGCAAAGAAGTTATTAAGGGAAGAATAATCCCTAAATATAAATATCTCTCACTTATTTAAA ? 0.326

Now try ACAGACGAAGGAGCCGCAAAGATGTCATTAAGGGATGAATAATCCCTCAATATAAATATCTCTCACTTATTTAAA . 0.205

Note, next up: ACAGACGAAGGAGCCGCAAAGAAGTTATTAAGGGAAGAATAATCCCACAATATAAAAATCTCTCACTTATTTAAA 0.118

Proceed to ACAGACGAAGGAGCCGCAAAGAAGTTATTAAGGGATGAATAATCCCTCCAAATAAATATCTCTCACTTATTTAAA 0.313

Now the same for ACAGACGAAGGAGCCGCAAAGTAGTTATTAAGGGATGAATAATCCCTCAATATATATATCTCTCACTTATTTAAA 0.884

Let us now turn to ACAGACGAAGGAGCCGCAAAGAATTTATTAAGGGATGAATAATCCCTCAATATATATATCTCTCACTTATTTAAA 0.46

Request: ACAGACGAAGGAGCCGCAAAGAAGTTATTATGGGATGAATAATCCCTCAATATAAATACCTCTCACTTATTTAAA 0.44

Just for reference, the supplement of paper PMC11780869 is where these values come from.
